Origin of the recorded values: patent US10301304B2

# METHOD: Oral pharmacokinetics / bioavailability
# Type: in vivo
# CONDITION SET: in vivo; Dog, single oral, 3 mg/kg nominal, spray-dried dispersion
METRIC: AUC(0-inf) (ng·h/mL)

INSERT INTO results (compound, metric, observed_value) VALUES
  ('Cc1cc(-c2cncc([C@@H](O)C(F)(F)F)c2)nc2c1C(=O)N(c1cnn(CC(F)F)c1)C2(C)C [Compound 1]', 'AUC(0-inf)', 9290);

* * *

# METHOD: Oral pharmacokinetics / bioavailability
# Format: in vivo
# CONDITION SET: in vivo; Monkey, single oral, 5 mg/kg nominal, spray-dried dispersion
METRIC: half-life

INSERT INTO measurements (smiles_string, metric, observed_value) VALUES
  ('Cc1cc(-c2cncc([C@@H](O)C(F)(F)F)c2)nc2c1C(=O)N(c1cnn(CC(F)F)c1)C2(C)C', 'half-life', '8.5 h');

* * *

# METHOD: Oral pharmacokinetics / bioavailability
# Assay type: in vivo
# CONDITION SET: in vivo; Monkey, single oral, 5 mg/kg nominal, spray-dried dispersion
METRIC: Cmax

INSERT INTO assay_data (smiles_string, metric, observed_value) VALUES
  ('Cc1cc(-c2cncc([C@@H](O)C(F)(F)F)c2)nc2c1C(=O)N(c1cnn(CC(F)F)c1)C2(C)C', 'Cmax', '1350 ng/mL');

* * *

# METHOD: Oral pharmacokinetics / bioavailability
# Type: in vivo, Rat
# CONDITION SET: in vivo; Rat, single oral, 1 mg/kg nominal, spray-dried dispersion
METRIC: half-life (h)

INSERT INTO results (smiles_string, metric, units_text, observed_value) VALUES
  ('Cc1cc(-c2cncc([C@@H](O)C(F)(F)F)c2)nc2c1C(=O)N(c1cnn(CC(F)F)c1)C2(C)C', 'half-life', 'h', 12.5);

* * *

# METHOD: Oral pharmacokinetics / bioavailability
# Format: in vivo, Rat
# CONDITION SET: rat, in vivo; Oral gavage, 3 mg/kg nominal dose, vehicle 0.2%MC/1%SLS; read-out: Rat PO AUC
Please use MET whenever AUC is not below 3000 ng·h/mL, and NOT MET whenever it is.

INSERT INTO assay_data (compound, assigned_class) VALUES
  ('CCOc1cncc(-c2cc(C)c3c(n2)C(C)(C)N(c2cnn(CC(F)F)c2)C3=O)c1 [B, reference compound]', 'NOT MET'),
  ('COc1cncc(-c2cc(C)c3c(n2)C(C)(C)N(c2cnn(CC(F)F)c2)C3=O)c1 [Compound A, reference compound]', 'NOT MET'),
  ('Cc1cc(-c2cncc(OCC(F)(F)F)c2)nc2c1C(=O)N(c1cnn(CC(F)F)c1)C2(C)C [D, reference compound]', 'MET'),
  ('Cc1cc(-c2cncc([C@@H](O)C(F)(F)F)c2)nc2c1C(=O)N(c1cnn(CC(F)F)c1)C2(C)C', 'MET');

* * *

# METHOD: Tissue Distribution in Rats
# Type: in vivo, rat
# CONDITION SET: male, heart; rat, 5 mg/kg oral, 7 hr post dose; read-out: Tissue to Plasma Ratio, Heart
# Experimental: Compound 1 distributed well into most tissues after an oral dose of 5 mg/kg administered to male rats. […] The tissue to plasma ratio followed the trend of liver>kidney>heart>lung>spleen>brain>CSF. The elimination kinetics of Compound 1 in each examined organ followed plasma kinetics. There was no evidence for tissue accumulation of Compound 1 after a single dose administration.
METRIC: Kp at 7 hr

INSERT INTO measurements (smiles_string, observed_value) VALUES
  ('Cc1cc(-c2cncc([C@@H](O)C(F)(F)F)c2)nc2c1C(=O)N(c1cnn(CC(F)F)c1)C2(C)C', 1.4);

* * *

# METHOD: Oral pharmacokinetics / bioavailability
# Type: in vivo, Rat
# CONDITION SET: in vivo; Rat, single oral, 1 mg/kg nominal, spray-dried dispersion
METRIC: AUC(0-inf) (ng·h/mL)

INSERT INTO assay_data (smiles_string, metric, observed_value) VALUES
  ('Cc1cc(-c2cncc([C@@H](O)C(F)(F)F)c2)nc2c1C(=O)N(c1cnn(CC(F)F)c1)C2(C)C', 'AUC(0-inf)', 5110);

* * *

# METHOD: Tissue drug concentrations in CD40-induced IBD model
# Format: in vivo, mouse
# CONDITION SET: Rag1 knock-out (Rag 1−/−), mouse, plasma, intraperitoneal; 10 mg/kg b.i.d. IP, 7 days, 2 h after last dose
METRIC: concentration at 2 h (ng/mL)

INSERT INTO results (smiles_string, observed_value) VALUES
  ('Cc1cc(-c2cncc([C@@H](O)C(F)(F)F)c2)nc2c1C(=O)N(c1cnn(CC(F)F)c1)C2(C)C', 6220);

* * *

# METHOD: Tissue Distribution in Rats
# Format: in vivo, rat
# CONDITION SET: male, liver; rat, 5 mg/kg oral, 48 hr post dose; read-out: Tissue to Plasma Ratio, Liver
METRIC: Kp at 48 hr

INSERT INTO results (compound, observed_value) VALUES
  ('Cc1cc(-c2cncc([C@@H](O)C(F)(F)F)c2)nc2c1C(=O)N(c1cnn(CC(F)F)c1)C2(C)C [Compound 1]', 5.32);

* * *

# ASSAY SYSTEM: CYP2C9 (Homo sapiens, UniProt P11712)
# Sequence (P11712 whole entry): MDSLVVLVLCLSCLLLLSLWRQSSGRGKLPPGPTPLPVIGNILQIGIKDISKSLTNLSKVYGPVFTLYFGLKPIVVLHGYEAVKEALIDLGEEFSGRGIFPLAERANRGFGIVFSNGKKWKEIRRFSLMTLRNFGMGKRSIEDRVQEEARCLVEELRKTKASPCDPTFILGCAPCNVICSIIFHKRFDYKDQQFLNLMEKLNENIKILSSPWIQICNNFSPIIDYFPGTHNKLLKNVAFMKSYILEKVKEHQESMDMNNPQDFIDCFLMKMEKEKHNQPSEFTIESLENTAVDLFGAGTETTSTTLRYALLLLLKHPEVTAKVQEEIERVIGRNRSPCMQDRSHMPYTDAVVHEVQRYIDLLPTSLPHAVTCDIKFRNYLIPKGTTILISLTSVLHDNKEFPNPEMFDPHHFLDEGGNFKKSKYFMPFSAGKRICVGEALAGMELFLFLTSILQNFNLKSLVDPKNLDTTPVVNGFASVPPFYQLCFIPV
# METHOD: Inhibition of CYP Enzymes in Human Liver Microsomes
# Type: in vitro ADME
# Set-up: from tissue; host or cells: human liver microsomes
# CONDITION SET: CYP2C9, 2.5 μM Diclofenac
METRIC: IC50 (µM)

INSERT INTO results (smiles_string, units_text, observed_value) VALUES
  ('Cc1cc(-c2cncc([C@@H](O)C(F)(F)F)c2)nc2c1C(=O)N(c1cnn(CC(F)F)c1)C2(C)C', 'µM', 32);

* * *

# METHOD: Tissue drug concentrations in CD40-induced IBD model
# Type: in vivo, mouse
# CONDITION SET: Rag1 knock-out (Rag 1−/−), mouse, colon (relative to plasma), intraperitoneal; 5 mg/kg b.i.d. IP, 7 days, 2 h after last dose
METRIC: Kp at 2 h

INSERT INTO results (molecule, observed_value) VALUES
  ('Cc1cc(-c2cncc([C@@H](O)C(F)(F)F)c2)nc2c1C(=O)N(c1cnn(CC(F)F)c1)C2(C)C [Compound 1]', 1.5);

* * *

# METHOD: Oral pharmacokinetics / bioavailability
# Assay type: in vivo
# CONDITION SET: in vivo; Mouse, single oral, 1 mg/kg nominal, 0.2% MC/1% SLS
METRIC: MRT (h)

INSERT INTO results (smiles_string, observed_value) VALUES
  ('Cc1cc(-c2cncc([C@@H](O)C(F)(F)F)c2)nc2c1C(=O)N(c1cnn(CC(F)F)c1)C2(C)C', 5.8);

* * *

# METHOD: Tissue Distribution in Rats
# Type: in vivo, rat
# CONDITION SET: male, liver; rat, 5 mg/kg oral, 0.5 hr post dose; read-out: Tissue to Plasma Ratio, Liver
METRIC: Kp at 0.5 h

INSERT INTO measurements (compound, observed_value) VALUES
  ('Cc1cc(-c2cncc([C@@H](O)C(F)(F)F)c2)nc2c1C(=O)N(c1cnn(CC(F)F)c1)C2(C)C [Compound 1]', 4.96);

* * *

# METHOD: Oral pharmacokinetics / bioavailability
# Format: in vivo, Rat
# CONDITION SET: in vivo; Rat, single oral, 1 mg/kg nominal, spray-dried dispersion; read-out: Cmax
METRIC: Cmax

INSERT INTO measurements (smiles_string, observed_value) VALUES
  ('Cc1cc(-c2cncc([C@@H](O)C(F)(F)F)c2)nc2c1C(=O)N(c1cnn(CC(F)F)c1)C2(C)C', '260 ng/mL');

* * *

# METHOD: Intravenous bolus pharmacokinetics
# Format: in vivo
# CONDITION SET: in vivo; Mouse, single IV bolus, 0.45 mg/kg nominal
METRIC: AUC(0-inf) (ng·h/mL)

INSERT INTO assay_data (smiles_string, observed_value) VALUES
  ('Cc1cc(-c2cncc([C@@H](O)C(F)(F)F)c2)nc2c1C(=O)N(c1cnn(CC(F)F)c1)C2(C)C', 1530);

* * *

# METHOD: Oral pharmacokinetics / bioavailability
# Format: in vivo
# CONDITION SET: in vivo; Mouse, single oral, 1 mg/kg nominal, 0.2% MC/1% SLS
METRIC: half-life (h)

INSERT INTO measurements (smiles_string, metric, units_text, observed_value) VALUES
  ('Cc1cc(-c2cncc([C@@H](O)C(F)(F)F)c2)nc2c1C(=O)N(c1cnn(CC(F)F)c1)C2(C)C', 'half-life', 'h', 3.8);

* * *

# METHOD: Tissue Distribution in Rats
# Assay type: in vivo, rat
# CONDITION SET: male, CSF (relative to plasma); rat, 5 mg/kg oral, 2 hr post dose; read-out: Tissue to Plasma Ratio, CSF
METRIC: Kp at 2 h

INSERT INTO measurements (smiles_string, observed_value) VALUES
  ('Cc1cc(-c2cncc([C@@H](O)C(F)(F)F)c2)nc2c1C(=O)N(c1cnn(CC(F)F)c1)C2(C)C', 0.01);
